I'd be grateful if you could share measured IC50 for these entries.
Target: human LPA1 (Homo sapiens)
Sequence (Q92633 whole entry): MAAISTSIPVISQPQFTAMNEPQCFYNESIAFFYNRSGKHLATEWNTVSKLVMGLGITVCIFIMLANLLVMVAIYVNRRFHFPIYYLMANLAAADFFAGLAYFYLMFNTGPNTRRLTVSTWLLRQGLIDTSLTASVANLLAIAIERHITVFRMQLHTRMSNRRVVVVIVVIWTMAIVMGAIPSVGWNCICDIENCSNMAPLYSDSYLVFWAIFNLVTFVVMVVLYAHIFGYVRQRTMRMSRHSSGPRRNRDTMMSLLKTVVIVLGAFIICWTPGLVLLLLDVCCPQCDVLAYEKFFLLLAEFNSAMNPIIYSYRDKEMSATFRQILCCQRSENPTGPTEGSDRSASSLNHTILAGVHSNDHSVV
Experiment: LPA1 functional antagonist assay (calcium flux)
Conditions: CHO cells overexpressing human LPA1; inhibition of calcium flux induced by 10 nM LPA; read-out: hLPA1 IC50
Numbers only, in nM.

// worked examples, IC50 included
Cc1nc(-c2nnn(C)c2CNc2ccnc(OC3CC(F)(F)C3)n2)ccc1O[C@H]1CCC[C@H](C(=O)O)C1 [Example 261] : 124
Cc1nc(-c2nnn(C)c2CNc2ncc(F)c(-c3ccccc3)n2)ccc1O[C@H]1CCC[C@H](C(=O)O)C1 [Example 143] : 26
Cc1nc(-c2nnn(C)c2CNc2nccc(OCC(C)(F)F)n2)ccc1O[C@H]1CCC[C@H](C(=O)O)C1 [Example 78] : 34

Batch of 4 compounds: report IC50 for each.
1. Cn1nnc(-c2ccc(O[C@H]3CCC[C@H](C(=O)O)C3)cn2)c1CNc1nccc(OCC2(C)CC2)n1 [Example 336]
2. CSc1cc(OCc2c(-c3ccc(O[C@H]4CCC[C@H](C(=O)O)C4)c(C)n3)nnn2C)ncn1 [Example 363]
3. CCc1nc(-c2nnn(C)c2CNc2nccc(C3CCC3)n2)ccc1O[C@H]1CCC[C@H](C(=O)O)C1 [Example 387]
4. CCc1ccnc(NCc2c(-c3ccc(O[C@H]4CCC[C@H](C(=O)O)C4)c(C)n3)nnn2C)n1 [Example 40]

Ans:
[28, 22, 24, 46]

---

Task for the reader: assign each of the following compounds its reported log10 IC50.
Biological target: human LPA1 (Homo sapiens)
Assay: LPA1 functional antagonist assay (calcium flux)
Details: CHO cells overexpressing human LPA1; inhibition of calcium flux induced by 10 nM LPA; read-out: hLPA1 IC50
Where a name gives a salt, the structure may show the parent alone.
Hi team, quick reminder: these entries are log10 of IC50 (nM).

# count of solved cases: 5
Cc1nc(-c2nnn(C)c2COc2cc(OC(F)F)ncn2)ccc1O[C@H]1CCC[C@H](C(=O)O)C1 [Example 255] : 1.11
Cc1cnc(NCc2c(-c3ccc(O[C@H]4CCC[C@H](C(=O)O)C4)c(C)n3)nnn2C)nc1-c1ccccc1 [Example 19] : 0.90
Cc1nc(-c2nnn(C)c2CNc2ccnc(C3CC3)n2)ccc1O[C@H]1CCC[C@H](C(=O)O)C1 [Example 374] : 1.95
Cc1nc(-c2nnn(C)c2CNc2ccnc(OCC(F)F)n2)ccc1O[C@H]1CCC[C@H](C(=O)O)C1 [Example 73] : 2.12
Cc1ncnc(NCc2c(-c3ccc(O[C@H]4CCC[C@H](C(=O)O)C4)c(C)n3)nnn2C)n1 [Example 196] : 3.34

Dear colleague, could you please provide log10 IC50 for the compounds listed below?
1. CCc1cc(NCc2c(-c3ccc(O[C@H]4CCC[C@H](C(=O)O)C4)c(C)n3)nnn2C)ncn1 [Example 318]
2. COCc1cc(OCc2c(-c3ccc(O[C@H]4CCC[C@H](C(=O)O)C4)c(C)n3)nnn2C)ncn1 [Example 299]
3. CCOc1ncnc(NCc2c(-c3ccc(O[C@H]4CCC[C@H](C(=O)O)C4)c(C)n3)nnn2C)n1 [Example 208]
4. Cc1nc(-c2nnn(C)c2CNc2nccc(C(C)C)n2)cnc1O[C@H]1CCC[C@H](C(=O)O)C1 [Example 135]
5. Cc1nc(-c2nnn(C)c2COc2cc(-c3ccccn3)ncn2)ccc1O[C@H]1CCC[C@H](C(=O)O)C1 [Example 355]
6. Cc1nc(-c2nnn(C)c2CNc2nncc(-c3ccccc3)n2)ccc1O[C@H]1CCC[C@H](C(=O)O)C1 [Example 192, bis TFA Salt]
7. CCCNc1nc(OCc2c(-c3ccc(O[C@H]4CCC[C@H](C(=O)O)C4)c(C)n3)nnn2C)ncc1F [Example 263]
8. [2H]C([2H])([2H])C([2H])([2H])Oc1nccc(NCc2c(-c3ccc(O[C@H]4CCC[C@H](C(=O)O)C4)c(C)n3)nnn2C)n1 [Example 258]

Ans:
1. 2.20
2. 1.83
3. 1.95
4. 2.47
5. 2.16
6. 1.72
7. 1.98
8. 3.27

Go through the list and state log10 IC50 for each entry.
1. Cc1nc(-c2nnn(C)c2CNc2nccc(-c3ccccc3)n2)cnc1O[C@H]1CCC[C@H](C(=O)O)C1 [Example 137]
2. Cc1nc(-c2nnn(C)c2Nc2nccc(OCC3CC3)n2)ccc1O[C@H]1CCC[C@H](C(=O)O)C1 [Example 232]
3. CCc1nc(-c2nnn(C)c2CNc2nccc(OC3CC3)n2)ccc1O[C@H]1CCC[C@H](C(=O)O)C1 [Example 390]
4. Cc1nc(-c2nnn(C)c2CNc2ncc(F)c(C(C)C)n2)ccc1O[C@H]1CCC[C@H](C(=O)O)C1 [Example 157]
5. Cn1nnc(-c2ccc(O[C@H]3CCC[C@H](C(=O)O)C3)cn2)c1CNc1nccc(-c2cccnc2)n1 [Example 32]
6. Cc1nc(-c2nnn(C)c2Nc2nccc(C(C)C)n2)ccc1O[C@H]1CCC[C@H](C(=O)O)C1 [Example 241]
7. Cc1nc(-c2nnn(C)c2CNc2nccc(-c3ccccc3F)n2)ccc1O[C@H]1CCC[C@H](C(=O)O)C1 [Example 20]

Ans:
1: 1.75; 2: 1.81; 3: 1.23; 4: 1.60; 5: 2.44; 6: 1.82; 7: 1.20

Would you be so kind as to report log10 IC50 for each listed record?
1. Cc1nc(-c2nnn(C)c2CNc2ncnc(NCCC3CC3)n2)ccc1O[C@H]1CCC[C@H](C(=O)O)C1 [Example 48]
2. Cn1nnc(-c2ccc(O[C@H]3CCC[C@H](C(=O)O)C3)cn2)c1Nc1nccc(OCC2CC2)n1 [Example 243]
3. Cc1nc(-c2nnn(C)c2CNc2nccc(Oc3ccccc3)n2)ccc1O[C@H]1CCC[C@H](C(=O)O)C1 [Example 15]

Ans:
2.34
2.09
0.90

Please give log10 IC50 for each item listed below.
1. Cc1nc(-c2nnn(C)c2CNc2nccc(C(C)(C)C)n2)ccc1O[C@H]1CCC[C@H](C(=O)O)C1 [Example 1]
2. Cc1nc(-c2nnn(C)c2CNc2ncc(F)c(-c3ccccc3F)n2)ccc1O[C@H]1CCC[C@H](C(=O)O)C1 [Example 123]

Ans:
1. 1.41
2. 1.90

Parameter requested: log10 IC50. Apply to each item below.
1. Cc1nc(-c2nnn(C)c2CNc2cc(C(F)(F)F)nc(Cl)n2)ccc1O[C@H]1CCC[C@H](C(=O)O)C1 [Example 125]
2. Cc1nc(-c2nnn(C)c2CNc2nccc(Oc3ccc(Cl)nc3)n2)ccc1O[C@H]1CCC[C@H](C(=O)O)C1 [Example 84]
3. Cc1nc(-c2nnn(C)c2CNc2ncc(F)c(NCC(F)(F)F)n2)ccc1O[C@H]1CCC[C@H](C(=O)O)C1 [Example 41]

Ans:
1: 2.22; 2: 2.58; 3: 2.32

Q: Fill in log10 IC50 for CCOc1ccnc(NCc2c(-c3ccc(O[C@H]4CCC[C@H](C(=O)O)C4)c(C)n3)nnn2C)c1 [Example 68] tested with human LPA1 (Homo sapiens).
Ans: 2.12

---

Biological target: human LPA1 (Homo sapiens)
Test: LPA1 functional antagonist assay (calcium flux)
Settings: CHO cells overexpressing human LPA1; inhibition of calcium flux induced by 10 nM LPA; read-out: hLPA1 IC50
Where a name gives a salt, the structure may show the parent alone.
Kindly note that classification relies on IC50 with these boundaries: Low = under 40 nM, Mid = from 40 nM up to 300 nM, High = 300 nM and over

Reference set, count: 3
Cc1nc(-c2nnn(C)c2CNc2nccc(-c3ccccc3F)n2)cnc1O[C@H]1CCC[C@H](C(=O)O)C1 : Low
Cc1nc(-c2nnn(C)c2CNc2nccc(-n3ccccc3=O)n2)ccc1O[C@H]1CCC[C@H](C(=O)O)C1 : High
Cc1nc(-c2nnn(C)c2CNc2ccnc(OC(C)C(F)(F)F)n2)ccc1O[C@H]1CCC[C@H](C(=O)O)C1 (stereo partly drawn) : Mid

Q: Hi, small favor: classify CCOc1ccnc(OCc2c(-c3ccc(O[C@H]4CCC[C@H](C(=O)O)C4)c(C)n3)nnn2C)c1 by its IC50 when you get a moment.
Ans: Low

Q: Bin? Cc1nc(-c2nnn(C)c2COc2cc(C(C)C)ncn2)ccc1O[C@H]1CCC[C@H](C(=O)O)C1
Ans: Low

Q: Which band does COc1cncc(OCc2c(-c3ccc(O[C@H]4CCC[C@H](C(=O)O)C4)c(C)n3)nnn2C)n1 fall in?
Ans: High

Q: Kindly state the category for this compound: Cc1nc(-c2nnn(C)c2CNc2cc(C(F)F)ncn2)ccc1O[C@H]1CCC[C@H](C(=O)O)C1
Ans: Mid

Q: Bin? Cc1nc(-c2nnn(C)c2CNc2ccnc(OCC(C)C)n2)ccc1O[C@H]1CCC[C@H](C(=O)O)C1
Ans: High

Q: Assign a category based on measured IC50 for COc1nc(NCc2c(-c3ccc(O[C@H]4CCC[C@H](C(=O)O)C4)c(C)n3)nnn2C)nc(C2CC2)n1 [Example 201, bis TFA Salt] and give only the class name.
Ans: Mid

Data provenance: patent US11267800B2
